A short record of pKi observed with Bradykinin-1 receptor (Homo sapiens (Human)) follows.
Sequence (P46663 whole entry): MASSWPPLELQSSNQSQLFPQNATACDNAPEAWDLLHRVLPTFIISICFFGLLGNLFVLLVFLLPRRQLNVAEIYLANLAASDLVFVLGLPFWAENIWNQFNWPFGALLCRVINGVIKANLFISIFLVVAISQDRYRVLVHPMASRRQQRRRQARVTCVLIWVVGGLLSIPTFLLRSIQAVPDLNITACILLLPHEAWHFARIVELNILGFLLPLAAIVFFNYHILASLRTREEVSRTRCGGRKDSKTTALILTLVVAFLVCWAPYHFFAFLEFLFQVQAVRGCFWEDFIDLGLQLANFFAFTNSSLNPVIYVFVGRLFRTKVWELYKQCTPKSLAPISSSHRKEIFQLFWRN
Numbers only, as −log10 of the molar value.

Use the examples below as a reference point.
molecule="COc1cc(C(=O)NC2(C(=O)NC3CCc4cc(-c5cc(Cl)cc(F)c5-c5noc(C)n5)cc(F)c43)CC2)on1 (racemic)" assayresult=7.77
molecule="Cc1cc(C(=O)NC2(C(=O)NC3CCc4cc(-c5cc(Cl)cc(F)c5-c5nnn(C)n5)cnc43)CC2)on1 (racemic)" assayresult=8.20
molecule=Cc1nc(-c2c(F)cc(Cl)cc2-c2ccc3c(c2)CC[C@@H]3NC(=O)C2(NC(=O)C(F)(F)F)CC2)no1 assayresult=8.21
molecule="COC(=O)c1c(Cl)cccc1-c1ccc2c(c1)CCCC2NC(=O)C1(NC(=O)C(F)(F)F)CC1 (racemic)" assayresult=6.28

API: the following record is the query input.
Lookup: Hi! What's the reported pKi for Cc1nc(-c2c(F)cc(Cl)cc2-c2ccc3c(c2)CC[C@@H]3NC(=O)C2(NC(=O)C(F)(F)F)COC2)no1 on Bradykinin-1 receptor (Homo sapiens (Human))?
Found: 7.43
